Attribution: ChEMBL document CHEMBL1132391

Target: Human immunodeficiency virus type 1 protease (Human immunodeficiency virus 1, UniProt Q72874)
Test: Tested for the inhibitory activity against HIV protease (First pure eluting diastereomer)

compound | IC50
COC(=O)[C@H](Cc1ccccc1)N=[S+](N)([O-])CCc1ccccc1 (stereo partly specified) | 1000 µM

---

Assay: Tested for the inhibitory activity against Carboxypeptidase A (mixture of diastereomers)

compound | IC50 / µM
N[S+]([O-])(CCc1ccccc1)=N[C@@H](Cc1ccccc1)C(=O)O (stereo partly specified) | 20

---

Target: Pepsin A (Sus scrofa)
Sequence (P00791 whole entry): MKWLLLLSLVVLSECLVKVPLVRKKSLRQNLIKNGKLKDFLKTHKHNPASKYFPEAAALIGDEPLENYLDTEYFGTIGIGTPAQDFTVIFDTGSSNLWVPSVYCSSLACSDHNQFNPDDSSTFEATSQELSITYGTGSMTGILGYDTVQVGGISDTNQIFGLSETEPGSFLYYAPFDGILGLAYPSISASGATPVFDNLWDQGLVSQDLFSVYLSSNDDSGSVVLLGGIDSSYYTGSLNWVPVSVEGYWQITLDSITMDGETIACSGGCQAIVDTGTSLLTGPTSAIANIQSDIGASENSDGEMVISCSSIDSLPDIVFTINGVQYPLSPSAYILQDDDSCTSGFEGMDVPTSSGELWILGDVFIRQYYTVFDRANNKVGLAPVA
Test: Tested for the inhibitory activity against pepsin (First pure eluting diastereomer)
pIC50: −log10 of the molar value.
endpoint-name: pIC50

compound | experimental-value
COC(=O)[C@H](Cc1ccccc1)N=[S+](N)([O-])CCc1ccccc1 (stereo partly specified) | 3.15

---

Listed here are compounds together with their documented IC50.
Biological target: Human immunodeficiency virus type 1 protease (Human immunodeficiency virus 1, UniProt Q72874)
Experiment: Tested for the inhibitory activity against HIV protease

compound | IC50
O=C(CCc1ccccc1)NCC(=O)OCc1ccccc1 | > 3 mM
COC(=O)[C@H](Cc1ccccc1)NC(=O)CCc1ccccc1 | > 3 mM
N[S+]([O-])(CCc1ccccc1)=NCC(=O)OCc1ccccc1 (stereo not drawn) | > 5 mM
